target: UniProt:P03951
Sequence (P03951 388-625 limits assumed): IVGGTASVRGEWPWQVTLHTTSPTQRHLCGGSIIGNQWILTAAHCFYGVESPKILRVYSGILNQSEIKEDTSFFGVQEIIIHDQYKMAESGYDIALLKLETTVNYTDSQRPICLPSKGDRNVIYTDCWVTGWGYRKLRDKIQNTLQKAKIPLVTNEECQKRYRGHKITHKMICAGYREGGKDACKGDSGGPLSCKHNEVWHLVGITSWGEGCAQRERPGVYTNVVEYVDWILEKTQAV
Sequence (P03951 19-387 partner limits assumed): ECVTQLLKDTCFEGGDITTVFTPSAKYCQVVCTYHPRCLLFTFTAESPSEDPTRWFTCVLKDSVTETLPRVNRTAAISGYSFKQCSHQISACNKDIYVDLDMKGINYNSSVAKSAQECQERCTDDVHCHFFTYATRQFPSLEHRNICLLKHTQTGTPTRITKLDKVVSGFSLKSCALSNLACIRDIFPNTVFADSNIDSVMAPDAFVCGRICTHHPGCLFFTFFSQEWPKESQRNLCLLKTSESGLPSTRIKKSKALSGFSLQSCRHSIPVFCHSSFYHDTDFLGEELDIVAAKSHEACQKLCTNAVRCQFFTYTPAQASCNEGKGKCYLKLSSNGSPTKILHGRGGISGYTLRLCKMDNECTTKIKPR
Task for the reader: assign each of the following compounds its reported pIC50.
By convention, pIC50 is the negative base-10 log of a molar concentration.

Incoming: Specify reported pIC50 for the compound shown: O=C1CCc2c(ccc(-c3cnc([C@@H]4[C@H]5C[C@H]5c5nc(-c6cc(Cl)ccc6-n6cc(Cl)nn6)cc(=O)n54)[nH]3)c2Cl)N1 [Embodiment 91]
Outgoing: 8.41

Incoming: Specify reported pIC50 for the compound shown: O=C1Nc2ccc(-c3[nH]c([C@@H]4[C@H]5C[C@H]5c5cc(-c6cc(Cl)ccc6-n6cc(Cl)nn6)cc(=O)n54)nc3F)cc2CO1 [Embodiment 64]
Outgoing: 8.32

Incoming: Specify reported pIC50 for the compound shown: O=C1CCc2cc(-c3[nH]c([C@@H]4[C@H]5C[C@H]5c5nc(-c6cc(Cl)ccc6-n6cc(Cl)nn6)cc(=O)n54)nc3F)ccc2N1 [Embodiment 92]
Outgoing: 8.37

Incoming: Specify reported pIC50 for the compound shown: Nc1n[nH]c2cc(-c3[nH]c([C@@H]4[C@H]5C[C@H]5c5cc(-c6cc(Cl)ccc6-n6cc(C(F)(F)F)nn6)cc(=O)n54)nc3F)ccc12 [Embodiment 78]
Outgoing: 8.85

Incoming: Specify reported pIC50 for the compound shown: CNc1noc2cc(-c3[nH]c([C@@H]4[C@H]5C[C@H]5c5cc(-c6cc(Cl)ccc6-n6cc(Cl)nn6)cc(=O)n54)nc3F)ccc12 [Embodiment 70]
Outgoing: 8.67

Incoming: Specify reported pIC50 for the compound shown: O=C1CCc2cc(-c3cnc([C@@H]4[C@H]5C[C@H]5c5cc(-c6cc(Cl)ccc6-n6cnnn6)cc(=O)n54)[nH]3)ccc2N1 [Embodiment 16]
Outgoing: 8.32

Incoming: Specify reported pIC50 for the compound shown: Cn1nc(N)c2ccc(-c3[nH]c([C@@H]4[C@H]5C[C@H]5c5cc(-c6cc(Cl)ccc6-n6cnnn6)cc(=O)n54)nc3F)cc21 [Embodiment 76]
Outgoing: 9.12

Incoming: Specify reported pIC50 for the compound shown: O=C1CCc2cc(-c3[nH]c([C@@H]4[C@H]5C[C@H]5c5cc(-c6cc(Cl)ccc6-n6cc(Cl)nn6)cc(=O)n54)nc3Cl)ccc2N1 [Embodiment 77]
Outgoing: 8.50

Incoming: Specify reported pIC50 for the compound shown: Nc1ccc(-c2[nH]c([C@@H]3[C@H]4C[C@H]4c4nc(-c5cc(Cl)ccc5-n5cnnn5)cc(=O)n43)nc2F)c(F)n1 [Embodiment 14]
Outgoing: 8.55

Incoming: Specify reported pIC50 for the compound shown: Nc1noc2cc(-c3[nH]c([C@@H]4[C@H]5C[C@H]5c5cc(-c6cc(Cl)ccc6-n6cc(C(F)(F)F)nn6)cc(=O)n54)nc3F)ccc12 [Embodiment 79]
Outgoing: 8.99

----------
Task for the reader: assign each of the following compounds its reported AUC(0-inf).
assay: Pharmacokinetic experiment in rats, intravenous injection and oral administration; type: in vivo; conditions: rat, plasma; male Sprague Dawley rats, intravenous administration 1 mg/kg
Form field: result (number plus unit)

Incoming: Specify reported AUC(0-inf) for the compound shown: O=C1CCc2c(ccc(-c3cnc([C@@H]4[C@H]5C[C@H]5c5nc(-c6cc(Cl)ccc6-n6cc(Cl)nn6)cc(=O)n54)[nH]3)c2F)N1
Outgoing: 26900 ng·h/mL

Incoming: Specify reported AUC(0-inf) for the compound shown: Nc1ccc(-c2nc(F)c([C@@H]3[C@H]4C[C@H]4c4cc(-c5cc(Cl)ccc5-n5cnnn5)cc(=O)n43)[nH]2)c(F)n1
Outgoing: 6530 ng·h/mL

----------
assay: Pharmacokinetic experiment in rats, intravenous injection and oral administration; type: in vivo; details: rat, plasma, po; male Sprague Dawley rats, intragastric administration 2 mg/kg
recorded endpoint: Cmax (ng/mL)
The answer is to be given in ng/mL; state only the numeric part.

Incoming: Specify reported Cmax for the molecule shown: O=C1CCc2c(ccc(-c3cnc([C@@H]4[C@H]5C[C@H]5c5nc(-c6cc(Cl)ccc6-n6cc(Cl)nn6)cc(=O)n54)[nH]3)c2F)N1 [Embodiment 90]
Outgoing: 1830

Incoming: Specify reported Cmax for the molecule shown: Nc1ccc(-c2nc(F)c([C@@H]3[C@H]4C[C@H]4c4cc(-c5cc(Cl)ccc5-n5cnnn5)cc(=O)n43)[nH]2)c(F)n1 [Embodiment 36]
Outgoing: 709
